- assay-system: Tn5 transposase (EK54, MA56 and LP372 hyperactive mutant version) (Escherichia coli, UniProt Q46731, E54K/L372P/M56A)
- assay-remarks: Inhibition of Tn5 transposase-DNA complex assembly (synapsis), gel shift assay
- assay-context: 800 nM transposase, 160 nM dsDNA, 60 bp DNA, fit to exponential decay, ± SD from fit, at least two, typically three experiments
Give pIC50 for every item shown.
When answering, recall that pIC50 equals minus log10 of the concentration in mol/L, and write that number alone.

Q: Indicate the recorded pIC50 value for this compound: `O=c1oc2ccccc2c(O)c1C(c1cccc(F)c1)c1c(O)c2ccccc2oc1=O`
A: 5.09

Q: Report measured pIC50; entry is `CCCOc1ccc(C(=O)Nc2ccc(Br)cc2C(=O)O)cc1`
A: 4.70

Q: Output measured pIC50 for this item: `O=C(Nc1ccccc1C(=O)O)c1ccc(NC(=O)C(c2ccccc2)c2ccccc2)cc1`
A: 5.03

Q: Tell me its pIC50 given `COc1ccc(C(c2c(O)c3ccccc3oc2=O)c2c(O)c3ccccc3oc2=O)cc1Cn1nc(C)c([N+](=O)[O-])c1C` as the entry.
A: 5.33

Q: Specify measured pIC50 for `COc1cccc(C(c2c(O)c3ccccc3oc2=O)c2c(O)c3ccccc3oc2=O)c1` .
A: 5.02

Q: # return recorded pIC50 for entry O=C(O)C(Cc1ccccc1)N1C(=O)C(=Cc2ccc(Br)cc2)SC1=S (centres unmarked)
A: 5.00

Q: Please give measured pIC50 of the following entry: `O=C(Nc1ccccc1C(=O)O)c1cccc(NC(=O)C(c2ccccc2)c2ccccc2)c1`
A: 4.34

Q: Give pIC50 for the following compound: O=C(/C=C/c1ccccc1)C1=C(O)C(=O)N(c2ccccc2)C1c1cccc([N+](=O)[O-])c1 (centres unmarked)
A: 4.46

###

- assay-system: HIV-1 integrase (Human immunodeficiency virus type 1 group M subtype B, UniProt P04585)
- assay-remarks: HIV-1 integrase assay (3' strand processing, PAGE)
- Format: biochemical
- Design: made in house
outcome-measure: inhibition of integrase in vitro (in words)

>  <compound>
O=C(/C=C/c1ccccc1)C1=C(O)C(=O)N(c2ccccc2)C1c1cccc([N+](=O)[O-])c1 (stereo not shown)

>  <value-reported>
inhibit

$$$$
>  <compound>
O=C(/C=C/c1ccccc1)C1=C(O)C(=O)N(c2cccc(C(F)(F)F)c2)C1c1ccc([N+](=O)[O-])cc1 (stereo not shown)

>  <value-reported>
inhibit

$$$$
>  <compound>
COc1ccc(N2C(=O)C(O)=C(C(=O)/C=C/c3ccccc3)C2c2cccc([N+](=O)[O-])c2)cc1 (stereo not shown)

>  <value-reported>
inhibit

$$$$

###

- assay-system: Tn5 transposase (Escherichia coli, UniProt Q46731, E54K/L372P/M56A)
- assay-context: read-out: IC50, inhibition of Tn5 transposase-DNA complex assembly; gel shift assays, inhibitor titration
outcome-measure: IC50 (µM)
// return numeric value only (unit: µM, not printed)

Q: // Input: `O=C(NC(=S)Nc1cc([N+](=O)[O-])cc(Cl)c1O)c1ccccc1` . Output its IC50 only.
A: 24

###

- assay-system: HIV-1 integrase (Human immunodeficiency virus type 1 group M subtype B, UniProt P04585)
- assay-remarks: HIV-1 integrase in vitro activity, 3' strand processing (denaturing PAGE)
- Assay type: biochemical
- Design: HIV-1 integrase (1 μM, final concentration); made in house
- assay-context: read-out: HIV-1 IN (integrase) in vitro IC50
Would you kindly list IC50 for each of these compounds?
Write the number in µM without appending the unit.

Q: Let me know recorded IC50 for O=C(/C=C/c1ccccc1)C1=C(O)C(=O)N(c2cccc(C(F)(F)F)c2)C1c1ccc([N+](=O)[O-])cc1 (stereo not shown) , thanks.
A: 11

Q: Supply reported IC50 belonging to this compound: COc1ccc(N2C(=O)C(O)=C(C(=O)/C=C/c3ccccc3)C2c2ccc(Cl)cc2)cc1 (stereo not shown)
A: 12

Q: Supply measured IC50 of O=C(C1=C(O)C(=O)N(c2ccccc2)C1c1cccc([N+](=O)[O-])c1)c1ccccc1 (stereo not shown) in your reply.
A: 165

Q: Give recorded IC50. COc1ccc(N2C(=O)C(O)=C(C(=O)/C=C/c3ccccc3)C2c2ccc([N+](=O)[O-])cc2)cc1 (stereo not shown)
A: 46

Q: Provide one value: measured IC50 of O=C(/C=C/c1ccccc1)C1=C(O)C(=O)N(c2cccc(C(=O)O)c2)C1c1ccc([N+](=O)[O-])cc1 (stereo not shown)
A: 87

Q: Please supply the value of reported IC50 for the item Cc1ccccc1N1C(=O)C(O)=C(C(=O)/C=C/c2ccccc2)C1c1ccc(Br)cc1 (stereo not shown)
A: 11

Q: Indicate the recorded IC50 value for this compound: COc1ccc(N2C(=O)C(O)=C(C(=O)/C=C/c3ccccc3)C2c2cccc([N+](=O)[O-])c2)cc1 (stereo not shown)
A: 22
